The reported numbers originate from patent US6177557.

- target system: basic fibroblast growth factor (bFGF) (UniProt P09038 P09038:135-288)
- Sequence (P09038 135-288, one chain of several): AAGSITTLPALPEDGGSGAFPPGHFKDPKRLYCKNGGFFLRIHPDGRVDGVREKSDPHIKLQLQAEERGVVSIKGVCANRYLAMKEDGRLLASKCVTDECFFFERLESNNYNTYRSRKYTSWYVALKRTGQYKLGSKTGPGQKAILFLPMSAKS
- assay notes: competition; displacement from low-affinity receptor on BHK cells; high-affinity receptor >1 uM
- measurement parameters: tags: Bachem California, 18 kDa, 154 aa; 125I-labeled for receptor assays; label: 32P
measure name: IC50

# IC50 lookup, item 12A (ssRNA) RNA: GGGAGCUCAGAAUAAACGCUCAAGGGGCAACGCUACAGACAAGUGCACCCAACUUCGACAUGAGGCCCGGAUCCGGC
> 100 nM
